- target-under-test: rat angiotensin 2 type 1 receptor (rat AT1aR) (Rattus norvegicus)
- Sequence (P25095 whole entry): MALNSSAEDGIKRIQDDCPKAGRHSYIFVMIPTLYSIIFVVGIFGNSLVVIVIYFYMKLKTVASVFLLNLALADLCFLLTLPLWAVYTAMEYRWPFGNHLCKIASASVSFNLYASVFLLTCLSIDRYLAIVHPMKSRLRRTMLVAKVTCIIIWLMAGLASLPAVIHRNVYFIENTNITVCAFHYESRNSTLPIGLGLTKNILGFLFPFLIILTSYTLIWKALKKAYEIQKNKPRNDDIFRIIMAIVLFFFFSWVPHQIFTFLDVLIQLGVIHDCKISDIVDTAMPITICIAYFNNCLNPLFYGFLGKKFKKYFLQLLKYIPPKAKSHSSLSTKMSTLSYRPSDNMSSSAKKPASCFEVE
- Sequence (P32121 whole entry partner): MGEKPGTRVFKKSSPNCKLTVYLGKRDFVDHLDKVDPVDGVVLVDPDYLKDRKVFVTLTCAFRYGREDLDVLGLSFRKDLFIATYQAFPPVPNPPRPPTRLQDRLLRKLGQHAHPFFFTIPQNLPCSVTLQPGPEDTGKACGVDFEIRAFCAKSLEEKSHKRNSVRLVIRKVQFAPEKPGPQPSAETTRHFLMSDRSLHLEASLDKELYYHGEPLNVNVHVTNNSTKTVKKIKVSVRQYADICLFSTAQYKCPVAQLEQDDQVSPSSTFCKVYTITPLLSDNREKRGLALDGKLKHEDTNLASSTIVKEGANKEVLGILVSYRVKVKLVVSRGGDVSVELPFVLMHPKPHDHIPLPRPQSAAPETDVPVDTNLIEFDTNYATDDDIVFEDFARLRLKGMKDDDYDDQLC
- test-method-notes: PathHunter β-arrestin-2 recruitment assay, rat AT1aR
- Type: cell-based
- assay-conditions: PathHunter β-arrestin HEK293 cells
Non-standard residues stand in square brackets, D forms with d. Residues, ends and D or L forms follow the SMILES beside them. Sar = CNCC(=O)O

compound	unit-of-measurement	rat AT1aR b-arrestin2 Max (%)
CNCC(=O)N[C@@H](CCCNC(=N)N)C(=O)N[C@H](C(=O)N[C@@H](Cc1ccc(O)cc1)C(=O)N[C@@H](Cc1c[nH]cn1)C(=O)N[C@@H](Cc1c[nH]cn1)C(=O)N1CCC[C@H]1C(N)=O)C(C)C [SEQ ID NO:42, Sar-Arg-Val-Tyr-His-His-Pro-NH2] (H-[Sar]RVYHHP-NH2; N-terminus assumed)	%	74.9
CNCC(=O)N[C@@H](CCCNC(=N)N)C(=O)N[C@H](C(=O)N[C@@H](Cc1ccc(O)cc1)C(=O)N[C@H](C(=O)N[C@@H](Cc1c[nH]cn1)C(=O)N1CCC[C@H]1C(=O)O)C(C)C)C(C)C [SEQ ID NO:54, Sar-Arg-Val-Tyr-Val-His-Pro-OH]	%	83.0
CNCC(=O)N[C@@H](CCCNC(=N)N)C(=O)N[C@H](C(=O)N[C@@H](Cc1ccc(O)cc1)C(=O)N[C@@H](CCCNC(=N)N)C(=O)N[C@@H](Cc1c[nH]cn1)C(=O)N1CCC[C@H]1C(N)=O)C(C)C [SEQ ID NO:45, Sar-Arg-Val-Tyr-Arg-His-Pro-NH2] (H-[Sar]RVYRHP-NH2; N-terminus assumed)	%	91.7
CNCC(=O)N[C@@H](CCCNC(=N)N)C(=O)N[C@H](C(=O)N[C@@H](Cc1ccc(O)cc1)C(=O)N[C@H](C)C(=O)N[C@@H](Cc1c[nH]cn1)C(=O)N1CCC[C@H]1C(N)=O)C(C)C [SEQ ID NO:53, Sar-Arg-Val-Tyr-D-Ala-His-Pro-NH2]	%	12.2
CC[C@H](C)[C@H](NC(=O)[C@H](Cc1ccccc1)NC(=O)[C@@H](NC(=O)[C@H](CCCNC(=N)N)NC(=O)CNC)C(C)C)C(=O)N[C@@H](Cc1c[nH]cn1)C(=O)N1CCC[C@H]1C(=O)N[C@H](C)C(=O)O [SEQ ID NO:48, Sar-Arg-Val-Phe-Ile-His-Pro-D-Ala-OH]	%	42.1
CNCC(=O)N[C@@H](CCCNC(=N)N)C(=O)N[C@H](C(=O)N[C@@H](Cc1ccc(O)cc1)C(=O)N[C@@H](CCCCN)C(=O)N[C@@H](Cc1c[nH]cn1)C(=O)N1CCC[C@H]1C(N)=O)C(C)C [SEQ ID NO:43, Sar-Arg-Val-Tyr-Lys-His-Pro-NH2] (H-[Sar]RVYKHP-NH2)	%	64.8
CC[C@H](C)[C@H](NC(=O)[C@H](Cc1ccc(O)cc1)NC(=O)[C@@H](NC(=O)[C@H](CCCNC(=N)N)NC(=O)[C@@H](N)CC(=O)O)C(C)C)C(=O)N[C@@H](Cc1c[nH]cn1)C(=O)N1CCC[C@H]1C(=O)NCC(=O)O [SEQ ID NO:56] (H-DRVYIHPG-OH; N-terminus assumed)	%	98.5
